Molecular target: T1, human tissue factor pathway inhibitor (TFPI) (human, UniProt P10646 29-304, limits assumed)
T1 construct: bought; also called hTFPI; human TFPI
T1 sequence (looked up): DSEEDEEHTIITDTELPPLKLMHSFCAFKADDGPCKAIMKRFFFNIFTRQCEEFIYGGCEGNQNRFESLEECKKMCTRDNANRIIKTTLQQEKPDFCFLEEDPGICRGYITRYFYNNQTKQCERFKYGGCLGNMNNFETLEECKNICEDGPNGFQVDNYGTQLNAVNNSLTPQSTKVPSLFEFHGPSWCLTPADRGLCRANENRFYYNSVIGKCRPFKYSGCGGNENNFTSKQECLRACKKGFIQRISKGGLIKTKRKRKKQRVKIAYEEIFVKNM
Assay: SPR, TFPI immobilized
Quantity name: Improvement (fold)

# Binder, Quantity name, Reported
data = [
    ("2A8 HC_S54F (Fab, V domains shown, also called 2A8-7) VH: QVQLVESGGGLVQPGGSLRLSCAASGFTFRSYGMSWVRQAPGKGLEWVSSIRGFSSSTYYADSVKGRFTISRDNSKNTLYLQMNSLRAEDTAVYYCARKYRYWFDYWGQGTLVTVSS VL: DIELTQPPSVSVAPGQTARISCSGDNLRNYYAHWYQQKPGQAPVVVIYYDNNRPSGIPERFSGSNSGNTATLTISGTQAEDEADYYCQSWDDGVPVFGGGTKLTVLG", "Improvement", 3.08),
    ("4B7 HC_D62R (Fab, V domains shown, also called 4B7-D62R) VH: QVQLQQSGPGLVKPSQTLSLTCAISGDSVSSNSAAWSWIRQSPGRGLEWLGIIYKRSKWYNRYAVSVKSRITINPDTSKNQFSLQLNSVTPEDTAVYYCARWHSDKHWGFDYWGQGTLVTVSS VL: DIVMTQSPLSLPVTPGEPASISCRSSQSLVFSDGNTYLNWYLQKPGQSPQLLIYKGSNRASGVPDRFSGSGSGTDFTLKISRVEAEDVGVYYCQQYDSYPLTFGQGTKVEIKR", "Improvement", 191),
    ("2A8 LC_N51V (Fab, V domains shown, also called 2A8-13) VH: QVQLVESGGGLVQPGGSLRLSCAASGFTFRSYGMSWVRQAPGKGLEWVSSIRGSSSSTYYADSVKGRFTISRDNSKNTLYLQMNSLRAEDTAVYYCARKYRYWFDYWGQGTLVTVSS VL: DIELTQPPSVSVAPGQTARISCSGDNLRNYYAHWYQQKPGQAPVVVIYYDVNRPSGIPERFSGSNSGNTATLTISGTQAEDEADYYCQSWDDGVPVFGGGTKLTVLG", "Improvement", 4.32),
    ("2A8 wild-type Fab (Fab, V domains shown, Fab with c-myc (or HA, or none) and 6xHis tag at the C-terminus of the heavy chain; also called 2A8wt; 2A8 wt) VH: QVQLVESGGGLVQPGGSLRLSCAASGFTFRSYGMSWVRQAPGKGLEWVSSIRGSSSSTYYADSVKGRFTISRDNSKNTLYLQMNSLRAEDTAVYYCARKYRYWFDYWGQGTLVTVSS VL: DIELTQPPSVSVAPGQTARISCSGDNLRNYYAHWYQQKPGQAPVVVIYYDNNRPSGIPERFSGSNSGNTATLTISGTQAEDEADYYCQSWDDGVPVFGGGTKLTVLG", "Improvement", 1),
]
